Reference source for all entries: patent EP0812839A1

# Tested on: HIV-1
# EXPERIMENT DESCRIPTION: Anti-viral activity: syncytium formation (Sup T1) or reverse transcriptase assay (H9)
# Assay type: cell-based
# REPORTED CONDITIONS: Human immunodeficiency virus 1, concentration that inhibits the proliferation of HIV by 50%, H9 or Sup T1 cell lines, 200 TCID50 of HIV-1
READOUT NAME: pIC50
Answer as the number alone; pIC50 is minus log10 of concentration in mol/L.

Would you mind telling me what pIC50 value was observed for CC(C)[C@@H](Cc1ccccc1)NC(=O)OC[C@@H]1O[C@@H]1[C@H](Cc1ccccc1)NC(=O)[C@@H](NC(=O)c1ccc2ccccc2n1)C(C)(C)S(C)(=O)=O ?
7.70

Would you mind telling me what pIC50 value was observed for CC(C)C(NC(=O)OC[C@@H]1O[C@@H]1[C@H](Cc1ccccc1)NC(=O)[C@@H](NC(=O)OCc1ccccc1)C(C)(C)S(C)(=O)=O)C(C)C ?
7.30

Would you mind telling me what pIC50 value was observed for CC(C)C(NC(=O)OC[C@@H]1O[C@@H]1[C@H](Cc1ccccc1)NC(=O)[C@@H](NC(=O)c1ccc2ccccc2n1)C(C)(C)S(C)(=O)=O)C(C)C ?
7.10

Would you mind telling me what pIC50 value was observed for CC(C)C(NC(=O)OC[C@@H]1O[C@@H]1[C@H](Cc1ccccc1)NC(=O)[C@H](CC(N)=O)NC(=O)c1ccc2ccccc2n1)C(C)C ?
6.96

Would you mind telling me what pIC50 value was observed for CC(C)C(NC(=O)OC[C@@H]1O[C@@H]1[C@H](Cc1ccccc1)NC(=O)[C@@H](NC(=O)COc1cccc2cnccc12)C(C)(C)S(C)(=O)=O)C(C)C ?
7.30

Would you mind telling me what pIC50 value was observed for CC(C)[C@H](NC(=O)OC[C@@H]1O[C@@H]1[C@H](Cc1ccccc1)NC(=O)[C@@H](NC(=O)OCc1ccccc1)C(C)(C)S(C)(=O)=O)c1ccccc1 ?
7.30

---

# Tested on: HIV-1
# EXPERIMENT DESCRIPTION: Anti-viral activity: syncytium formation (Sup T1) or reverse transcriptase assay (H9)
# Assay type: cell-based
# REPORTED CONDITIONS: Human immunodeficiency virus 1, concentration that inhibits the proliferation of HIV by 50%, H9 or Sup T1 cell lines, 200 TCID50 of HIV-1
Field: label. Allowed values: 1 (yes) (IC50 < 100 nM) or 0 (no) (IC50 >= 100 nM).

Bench note: check whether CC(C)[C@@H](Cc1ccccc1)NC(=O)OC[C@@H]1O[C@@H]1[C@H](Cc1ccccc1)NC(=O)[C@@H](NC(=O)COc1cccc2cnccc12)C(C)(C)S(C)(=O)=O shows IC50 below 100 nM
1 (yes)

Bench note: check whether CC(C)[C@@H](Cc1ccccc1)NC(=O)OC[C@@H]1O[C@@H]1[C@H](Cc1ccccc1)NC(=O)[C@@H](NC(=O)OCc1ccccc1)C(C)(C)S(C)(=O)=O shows IC50 below 100 nM
1 (yes)

Bench note: check whether CC(C)[C@H](NC(=O)OC[C@@H]1O[C@@H]1[C@H](Cc1ccccc1)NC(=O)[C@H](CC(N)=O)NC(=O)c1ccc2ccccc2n1)c1ccccc1 shows IC50 below 100 nM
0 (no)

Bench note: check whether CC(C)[C@H](NC(=O)OC[C@@H]1O[C@@H]1[C@H](Cc1ccccc1)NC(=O)[C@@H](NC(=O)COc1cccc2cnccc12)C(C)(C)S(C)(=O)=O)c1ccccc1 shows IC50 below 100 nM
1 (yes)

Bench note: check whether CC(C)[C@@H](Cc1ccccc1)NC(=O)OC[C@@H]1O[C@@H]1[C@H](Cc1ccccc1)NC(=O)[C@H](CC(N)=O)NC(=O)c1ccc2ccccc2n1 shows IC50 below 100 nM
0 (no)
